Data provenance: ChEMBL document CHEMBL1961873

target: Vascular endothelial growth factor receptor 3 (Homo sapiens); details: at 1 µM;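 further: mean FLT4 inhibition, averaged across replicates, from the GSK PKIS kinase inhibitor screen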
Each record here notes measured inhibition.
Measured Endpoint: inhibition (%)

CC(C)c1ccc(Nc2nccc(-c3cnn4ncccc34)n2)cc1 | 9.77
CS(=O)(=O)Nc1cccc(-c2ccc3c(NC(=O)C4CC4)n[nH]c3c2)c1 | 1.96
CC(C)c1ccc2c(c1)NC(=O)/C2=N/Nc1ccc(S(N)(=O)=O)cc1 | 5.37
COc1cccc(-n2nc(C)c3c(N/N=C(\C)c4ccncc4)ncnc32)c1 | 1.25
Cc1ccc2c(-c3ccnc(Nc4ccc5c(c4)OCCO5)n3)c(-c3ccc(C(F)(F)F)cc3)nn2n1 | 2.51
CN(c1ccc(NC(=O)Nc2ccc(OC(F)(F)F)cc2)cc1)c1ccnc(Nc2cccc(S(N)(=O)=O)c2)n1 | 90.1
Cc1ccc2c(c1)/C(=N/Nc1ccc(S(N)(=O)=O)cc1)C(=O)N2 | 14.6
O=C1Nc2ccc(-c3cccnc3)cc2C1=Cc1cc(Br)c(O)c(Br)c1 | 4.42
O=S(=O)(CCOCc1ccc(-c2ccc3ncnc(Nc4ccc(OCc5cccc(F)c5)c(Cl)c4)c3c2)o1)c1ccccc1 | 14
COc1cc2ncnc(Nc3ccc(C)c(O)c3)c2cc1OC | 107
